Experiment: qHTS of pediatric cancer cell lines to identify multiple opportunities for drug repurposing: Confirmatory screen for BT-37 cells (AID 1347117);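 also: viability measured after 48 h of compound exposure; nearly all actives have a fitted effect of over 55% in size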
Conditions: BT-37 pediatric cancer cells, viability; series mostly up to 45.9 µM
Inconclusive results are not listed. Calls of active or inactive are those of the source. Calls follow the shape of the dose curve; as a rule, active = well fitted cell-killing curve with a large enough effect; inconclusive = small, poorly fitted or top-dose-only effect; inactive = no such curve, though single readings can be large or run the other way. Numbered stars: 1 amine (or outer) side, 2 acyl side, 3 side chain; on linkers, the order of the positions; unused ones are H or OH. Bridge positions count the residues as written; N and C are the ends. Square brackets hold non-standard residues; d marks the D form. Peptide text beside a SMILES is read from it. I, II: the chains in the order shown. Actinocin(9to1) = Cc1c2oc3c(C)ccc(C(=O)[*:1])c3nc-2c(C(=O)[*:2])c(N)c1=O; NMeV = CN[C@H](C(=O)O)C(C)C; Sar = CNCC(=O)O
Hello, when you answer, please use one of the following outcomes: label 1 (active), label 0 (inactive)

Below, 10 molecules whose answers are already recorded.
CN(C)/N=N/c1nc[nH]c1C(N)=O    label 0
Cc1c2oc3c(C)ccc(C(=O)N[C@@H]4C(=O)N[C@H](C(C)C)C(=O)N5CCC[C@H]5C(=O)N(C)CC(=O)N(C)[C@@H](C(C)C)C(=O)O[C@@H]4C)c3nc-2c(C(=O)N[C@@H]2C(=O)N[C@H](C(C)C)C(=O)N3CCC[C@H]3C(=O)N(C)CC(=O)N(C)[C@@H](C(C)C)C(=O)O[C@@H]2C)c(N)c1=O (I: T[dV]P[Sar][NMeV] / II: T[dV]P[Sar][NMeV]; ester I:1-I:C, II:1-II:C; linker I:N-II:N via Actinocin(9to1))    label 1
NC(=O)CC[C@@H]1NC(=O)[C@H](Cc2ccccc2)NC(=O)[C@H](Cc2ccc(O)cc2)NC(=O)CCSSC[C@@H](C(=O)N2CCC[C@H]2C(=O)N[C@@H](CCCN=C(N)N)C(=O)NCC(N)=O)NC(=O)[C@H](CC(N)=O)NC1=O    label 0
CC1(C)O[C@@H]2C[C@H]3[C@@H]4C[C@H](F)C5=CC(=O)CC[C@]5(C)[C@H]4[C@@H](O)C[C@]3(C)[C@]2(C(=O)CO)O1    label 0
C[C@]12C=CC(=O)C=C1[C@@H](F)C[C@@H]1[C@@H]2[C@@H](O)C[C@@]2(C)[C@H]1CC[C@]2(O)C(=O)CO    label 0
C[n+]1c2cc(N)ccc2cc2ccc(N)cc21 (tested in a mixture with another compound)    label 1
C[C@]12CCC(=O)C=C1CC[C@H]1[C@@H]3CC[C@](O)(C(=O)CO)[C@@]3(C)C[C@H](O)[C@@]12F    label 0
COc1cc(C=C2CCC/C(=C\c3ccc(O)c(OC)c3)C2=O)ccc1O    label 1
CN(C)C(=S)SC(=S)N(C)C    label 1
C[C@]12C=CC(=O)C=C1CC[C@@H]1[C@@H]2[C@@H](O)C[C@@]2(C)[C@H]1CC[C@]2(O)C(=O)CO    label 0

Q. How did this test come out for OC[C@H]1O[C@@H](n2cnc3c(=S)nc[nH]c32)[C@H](O)[C@@H]1O ?
A. label 1

Q. How did this test come out for C[C@H]1C[C@H]2[C@@H]3CCC4=CC(=O)C=C[C@]4(C)[C@@]3(Cl)[C@@H](O)C[C@]2(C)[C@@]1(O)C(=O)CO ?
A. label 0
